# System: CP237
# Protocol Summary: qHTS profiling for inhibitors of Plasmodium falciparum proliferation (AID 504749); note: nearly all actives have a fitted effect of over 60% in size
# Run Parameters: P. falciparum in erythrocytes, SYBR Green DNA, 72 h; series mostly up to 28.7 µM
Inconclusive results are not listed. Activity calls are given as the source filed them. Calls come from the whole dose curve; as a rule, active = well fitted inhibition curve with a large enough effect; inconclusive = small, poorly fitted or top-dose-only effect; inactive = flat fitted curve, though single readings scatter.
Write down the outcome that applies. Available outcomes: class 1 (active), class 0 (inactive)

Reference set (5 entries):
{"columns": ["Compound", "Target Or System", "Assigned Category"],
 "data": [
  ["O=C1Nc2ccc(Cl)cc2C(C#CC2CC2)(C(F)(F)F)O1 (configuration not stated)", "CP237", "class 0"],
  ["CC(=O)N[C@@H](CS)C(=O)O", "CP237", "class 0"],
  ["Cc1cccc(C)c1OCC(C)N (configuration not stated)", "CP237", "class 1"],
  ["COc1ccc(Cc2nccc3cc(OC)c(OC)cc23)cc1OC", "CP237", "class 0"],
  ["Cc1cnc(C(=O)O)c[n+]1[O-]", "CP237", "class 0"]
]}

How did this test come out for CCN(CC)CCOC(=O)c1ccc(N)cc1 ?
class 0

I would be grateful if you could indicate the recorded call for CCN1CCC[C@H]1CNC(=O)c1cc(S(N)(=O)=O)ccc1OC .
class 0

----------
# Protocol Summary: Quantitative High-Throughput drug screen in 47 multiple myeloma cell lines against the NCATS MIPE library collection: KMM1_JCRB cell viability assay (AID 1918960); note: nearly all actives have a fitted effect of over 30% in size
# Run Parameters: KMM1 myeloma viability, CellTiter-Glo ATP luminescence, 48 h; series mostly up to 45.8 µM
Results filed as inconclusive are left out. Activity calls are given as the source filed them. The call rests on the fitted dose curve; in most records, active means well fitted cell-killing curve with a large enough effect; inconclusive means small, poorly fitted or top-dose-only effect, or effect the other way; inactive means no such curve, though single readings can be large or run the other way.
Classes to choose from: active, inactive

{"columns": ["Chemical Structure", "Assigned Category"],
 "data": [
  ["O=C(O)c1ccc(-c2c[nH]c3ncc(-c4ccccc4)cc23)cc1C1CCCC1", "inactive"],
  ["CO[C@H]1C(=O)[C@]2(C)[C@@H](OC)C[C@H]3OC[C@@]3(OC(C)=O)[C@H]2[C@H](OC(=O)c2ccccc2)[C@]2(O)C[C@H](OC(=O)[C@H](O)[C@@H](NC(=O)OC(C)(C)C)c3ccccc3)C(C)=C1C2(C)C", "inactive"]
]}

Shift focus to the following entry.
Hey, what did the test say about NC(=O)c1cccc(-c2cc(Nc3ccc(OC(F)(F)F)cc3)ncn2)c1 ?
active

----------
# Target Or System: D(1A) dopamine receptor (Homo sapiens) (UniProt P21728)
# Sequence (P21728 whole entry, looked up): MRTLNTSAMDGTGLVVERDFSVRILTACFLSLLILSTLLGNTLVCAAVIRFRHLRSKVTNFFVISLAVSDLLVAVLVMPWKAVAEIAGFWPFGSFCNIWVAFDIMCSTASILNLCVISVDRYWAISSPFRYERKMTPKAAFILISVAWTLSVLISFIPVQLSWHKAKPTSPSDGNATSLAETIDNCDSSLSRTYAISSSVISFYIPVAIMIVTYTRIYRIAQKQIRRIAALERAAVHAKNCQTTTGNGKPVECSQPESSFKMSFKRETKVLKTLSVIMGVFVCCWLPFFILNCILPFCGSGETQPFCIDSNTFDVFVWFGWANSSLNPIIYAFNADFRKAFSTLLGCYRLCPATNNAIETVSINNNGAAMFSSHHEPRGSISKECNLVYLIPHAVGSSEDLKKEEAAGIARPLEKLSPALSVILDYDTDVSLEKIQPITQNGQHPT
# Protocol Summary: HTS Assay for Allosteric Agonists of the Human D1 Dopamine Receptor: Primary Screen for Antagonists (AID 488983);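 note: calcium flux response to an EC80 dopamine challenge measured with no-wash dye; % is set by controls: 0 for no effect and ±100 for the full control effect; nearly all actives have a fitted effect of over 65% in size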
# Run Parameters: D1 receptor cell assay, antagonist mode, qHTS titration; series mostly up to 41.8 µM
Records with an inconclusive call do not appear. The source made the active and inactive calls. The call rests on the fitted dose curve; in most records, active means well fitted inhibition curve with a large enough effect; inconclusive means small, poorly fitted or top-dose-only effect, or effect the other way; inactive means flat fitted curve, though single readings scatter.
Measure: outcome

{"columns": ["Molecule", "Target Or System", "Measure", "Result"],
 "data": [
  ["CC/C(=C(\\c1ccccc1)c1ccc(OCCN(C)C)cc1)c1ccccc1", "D(1A) dopamine receptor (Homo sapiens) (UniProt P21728)", "outcome", "inactive"],
  ["CCN(CC)C(=O)c1ccc(O)c(OC)c1", "D(1A) dopamine receptor (Homo sapiens) (UniProt P21728)", "outcome", "inactive"],
  ["COc1ccccc1N1CCN(CCCNc2cc(=O)n(C)c(=O)n2C)CC1", "D(1A) dopamine receptor (Homo sapiens) (UniProt P21728)", "outcome", "inactive"],
  ["COc1cccc(-c2cc(=O)c3ccccc3o2)c1N", "D(1A) dopamine receptor (Homo sapiens) (UniProt P21728)", "outcome", "inactive"],
  ["CC1(C)CCC2=C(O1)c1ccccc1C(=O)C2=O", "D(1A) dopamine receptor (Homo sapiens) (UniProt P21728)", "outcome", "inactive"],
  ["NC(N)=Nc1nc(CSCC/C(N)=N/S(N)(=O)=O)cs1", "D(1A) dopamine receptor (Homo sapiens) (UniProt P21728)", "outcome", "inactive"],
  ["C[N+](C)(C)CCCCCC[N+](C)(C)C", "D(1A) dopamine receptor (Homo sapiens) (UniProt P21728)", "outcome", "inactive"],
  ["COc1ccc(Cc2nccc3cc(OC)c(OC)cc23)cc1OC", "D(1A) dopamine receptor (Homo sapiens) (UniProt P21728)", "outcome", "inactive"]
]}

Supply recorded outcome for CC(C)NCC(O)COc1cccc2[nH]ccc12 (centres undefined) here.
inactive

----------
# Protocol Summary: qHTS for identification of novel therapeutic agents for treatment of microphthalmiaassociated transcription factor (MiT) renal cell carcinoma (RCC) (AID 1963991);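 note: curves scaled with 100% = DMSO viability and 0% = empty wells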
# Run Parameters: TFE3-RCC viability, CellTiter-Glo, 48 h; measured here: UOK145 Z-AUC; stronger effect = lower value
Results filed as inconclusive are left out.
Decide using z-score alone. Strictly below 0.7: condition met. Equal to or above 0.7: condition not met.

Before answering, review these 2 worked examples.
{"columns": ["Chemical Structure", "Assigned Category"],
 "data": [
  ["COc1cc2nc(-c3ccc(N4CCN(C)CC4)cc3)nc(NCCN3CCOCC3)c2cc1OC", "condition met"],
  ["O=c1c(-c2ccc(O)cc2)coc2cc(O[C@@H]3O[C@H](CO)[C@H](O)[C@H](O)[C@H]3O)ccc12", "condition not met"]
]}

Would you kindly verify if z-score of COc1ncc(-c2ccc3nccc(-c4ccnnc4)c3c2)cc1NS(=O)(=O)c1ccc(F)cc1F is strictly less than 0.7?
condition met

Confirm or reject: z-score of CO[C@H]1C=CO[C@@]2(C)Oc3c(C)c(O)c4c(O)c(c5c(c4c3C2=O)NC2(CCN(CC(C)C)CC2)N=5)=NC(=O)C(C)=CC=C[C@H](C)[C@H](O)[C@@H](C)[C@@H](O)[C@@H](C)[C@H](OC(C)=O)[C@H]1C lies strictly below 0.7
condition met

Dear colleague, could you confirm whether z-score of Clc1ccc(-c2nc3sccn3c2C=NOCc2ccc(Cl)c(Cl)c2)cc1 falls below 0.7? Thanks.
condition met

Record O=C(O)C=Cc1ccc(O)c(O)c1 : is its z-score strictly below 0.7?
condition met

----------
# Protocol Summary: qHTS assay for measurement of the activity of small molecule inhibitors on Zika virus induced Caspase-3 activity in human iPSC derived neural progenitor cells (hNPCs) (AID 1224857); note: nearly all actives have a fitted effect of over 65% in size
# Run Parameters: hNPCs ZIKV-induced caspase-3/7, Caspase-Glo luminescence, 6 h; series mostly up to 45.7 µM
Inconclusive results are not listed. Calls of active or inactive are those of the source. The call rests on the fitted dose curve; in most records, active means well fitted inhibition curve with a large enough effect; inconclusive means small, poorly fitted or top-dose-only effect; inactive means no such curve, though single readings can be large or run the other way.
Give your call using only these classes: active, inactive

{"columns": ["Molecule", "Assigned Category"],
 "data": [
  ["COc1cc(O)c2c(c1)C(=O)c1cc(C)cc(O)c1C2=O", "inactive"],
  ["COc1cc(NC(=O)c2ccc(-c3ccc(Cl)cc3)o2)cc(OC)c1", "inactive"]
]}

Returns: the outcome recorded for O=C(O)c1ccc(-c2c[nH]c3ncc(-c4ccccc4)cc23)cc1C1CCCC1 in this assay.
inactive

Dear all, I need the recorded test outcome for CCCCCCCCCCCC1=C(O)C(=O)C=C(O)C1=O , thank you.
inactive

I'd appreciate the recorded outcome for C[C@H]1[C@H](NC(=O)C(=NOC(C)(C)C(=O)O)c2csc(N)n2)C(=O)N1S(=O)(=O)O from this test.
inactive

Short answer needed: outcome of this test for CNC(=O)c1ccc2cc(C3(O)CCn4cncc43)ccc2c1 (configuration not stated) ?
inactive

# outcome recorded in this test, key = COc1cc2ncnc(-n3nc(-c4ccccn4)nc3N)c2cc1OC
inactive

What call does the record list for CN[C@@H](C)C(=O)N[C@H]1CN(C(=O)CC(C)C)CC[C@H]2CC[C@@H](C(=O)NC(c3ccccc3)c3ccccc3)N2C1=O ?
inactive

What classification did COc1ccc(-c2coc3cc(O)ccc3c2=O)cc1 end up with in this test?
active

----------
We begin with a simple list: items and their reported parasite growth, % of control (lower = inhibition).
# Protocol Summary: qHTS profiling of the MIPE4 collection as inhibitors of Plasmodium falciparum (DD2) proliferation (Rep 2) (AID 743346)
# Run Parameters: P. falciparum Dd2 in erythrocytes, SYBR Green DNA, 72 h; at 28.5 µM (top of the series) unless noted
All answers are understood in %, so give the number only.

{"columns": ["Molecule", "Result Unit", "Numeric Result"],
 "data": [
  ["COc1ccc2c(Oc3ccc(NC(=O)c4c(C)n(CC(C)(C)O)n(-c5ccccc5)c4=O)nc3)ccnc2c1", "%", 37],
  ["CC[C@H]1OC(=O)[C@H](C)[C@@H](O[C@H]2C[C@@](C)(OC)[C@@H](O)[C@H](C)O2)[C@H](C)[C@@H](O[C@@H]2O[C@H](C)C[C@H](N(C)C)[C@@H]2O)[C@](C)(O)C[C@@H](C)CN(C)[C@H](C)[C@@H](O)[C@]1(C)O", "%", 14],
  ["Cc1ccc(C(C)(O)c2nc3ccccc3s2)c(C)c1 (centres undefined)", "%", 88.7],
  ["N[C@H](CSC(c1ccccc1)(c1ccccc1)c1ccccc1)C(=O)O", "%", 16.2],
  ["Cc1ccc(C(=O)Nc2cccc(C(F)(F)F)c2)cc1Nc1nc(-c2cccnc2)nc2c1cnn2C", "%", 27.1],
  ["N[C@@]1(C(=O)O)CS(=O)(=O)[C@H]2[C@H](C(=O)O)[C@H]21", "%", 112]
]}

Proceed to the following item.
Provide measured parasite growth, % of control (lower = inhibition) value, entry: NC(=O)c1cnc(-c2ccc(C3(N)CCC3)cc2)c(-c2ccccc2)c1
30
